pIC50 values, listed per item
Tested on: SW480
protocol details: Cytotoxicity against human SW480 cells after 96 hrs by SRB assay
Format: functional, cell-based
condition label: SW480, 96 h
pIC50: −log10 of the molar value.
assay endpoint: pIC50

{"columns": ["smiles", "assayed system", "numeric readout"],
 "data": [
  ["C=C(C)[C@@H]1CC[C@]2([C@H](O)CC(=O)CC(=O)OCC)CC[C@]3(C)[C@H](CC[C@@H]4[C@@]5(C)CC[C@H](OC(C)=O)C(C)(C)[C@@H]5CC[C@]43C)[C@@H]12", "SW480", 4.89],
  ["C=C(C)[C@@H]1CC[C@]2(C(=O)CC(=O)OCC)CC[C@]3(C)[C@H](CC[C@@H]4[C@@]5(C)CC[C@H](OC(C)=O)C(C)(C)[C@@H]5CC[C@]43C)[C@@H]12", "SW480", 5.66],
  ["C=C(C)[C@@H]1CC[C@]2(C(=O)CC(=O)OCC)CC[C@]3(C)[C@H](CC[C@@H]4[C@@]5(C)CC[C@H](OC)C(C)(C)[C@@H]5CC[C@]43C)[C@@H]12", "SW480", 5.23],
  ["C=C(C)[C@@H]1CC[C@]2([C@H](O)CC(=O)CC(=O)OCC)CC[C@]3(C)[C@H](CC[C@@H]4[C@@]5(C)CC[C@H](OC)C(C)(C)[C@@H]5CC[C@]43C)[C@@H]12", "SW480", 4.82],
  ["C=C(C)[C@@H]1CC[C@]2([C@@H]3CO3)CC[C@]3(C)[C@H](CC[C@@H]4[C@@]5(C)CC[C@H](O)C(C)(C)[C@@H]5CC[C@]43C)[C@@H]12", "SW480", 4.79]
]}
